# system.tested: mGlu7/Elfn1 (Rattus norvegicus)
# Construct: expressed in transfected cells; host or cells: HEK293A mGlu7/GIRK cells cocultured with HEK293A polyclonal cells stably expressing Elfn1-Myc (pcDNA3)
# Sequence (P35400 35-915): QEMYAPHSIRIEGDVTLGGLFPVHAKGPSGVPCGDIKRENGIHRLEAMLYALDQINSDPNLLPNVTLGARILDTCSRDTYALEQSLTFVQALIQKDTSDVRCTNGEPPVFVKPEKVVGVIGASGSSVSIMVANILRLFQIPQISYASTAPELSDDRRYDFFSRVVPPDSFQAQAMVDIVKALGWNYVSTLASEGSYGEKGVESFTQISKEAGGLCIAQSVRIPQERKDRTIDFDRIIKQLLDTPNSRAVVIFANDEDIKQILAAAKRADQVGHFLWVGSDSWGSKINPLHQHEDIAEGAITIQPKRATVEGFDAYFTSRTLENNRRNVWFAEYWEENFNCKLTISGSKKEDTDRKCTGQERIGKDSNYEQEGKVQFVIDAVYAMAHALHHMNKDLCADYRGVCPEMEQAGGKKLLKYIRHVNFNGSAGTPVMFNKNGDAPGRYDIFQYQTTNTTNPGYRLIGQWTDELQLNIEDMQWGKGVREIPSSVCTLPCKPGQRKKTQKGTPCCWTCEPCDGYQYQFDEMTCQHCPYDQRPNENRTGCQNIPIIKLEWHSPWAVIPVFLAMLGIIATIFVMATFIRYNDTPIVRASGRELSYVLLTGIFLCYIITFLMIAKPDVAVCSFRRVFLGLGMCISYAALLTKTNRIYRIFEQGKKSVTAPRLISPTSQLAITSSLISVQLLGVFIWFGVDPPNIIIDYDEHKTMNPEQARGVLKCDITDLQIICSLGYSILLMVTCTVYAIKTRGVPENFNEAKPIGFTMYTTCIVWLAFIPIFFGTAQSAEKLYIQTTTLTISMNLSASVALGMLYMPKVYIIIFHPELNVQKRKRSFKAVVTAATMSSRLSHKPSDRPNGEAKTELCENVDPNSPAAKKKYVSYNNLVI
# Sequence (Q8C8T7 26-828 partner): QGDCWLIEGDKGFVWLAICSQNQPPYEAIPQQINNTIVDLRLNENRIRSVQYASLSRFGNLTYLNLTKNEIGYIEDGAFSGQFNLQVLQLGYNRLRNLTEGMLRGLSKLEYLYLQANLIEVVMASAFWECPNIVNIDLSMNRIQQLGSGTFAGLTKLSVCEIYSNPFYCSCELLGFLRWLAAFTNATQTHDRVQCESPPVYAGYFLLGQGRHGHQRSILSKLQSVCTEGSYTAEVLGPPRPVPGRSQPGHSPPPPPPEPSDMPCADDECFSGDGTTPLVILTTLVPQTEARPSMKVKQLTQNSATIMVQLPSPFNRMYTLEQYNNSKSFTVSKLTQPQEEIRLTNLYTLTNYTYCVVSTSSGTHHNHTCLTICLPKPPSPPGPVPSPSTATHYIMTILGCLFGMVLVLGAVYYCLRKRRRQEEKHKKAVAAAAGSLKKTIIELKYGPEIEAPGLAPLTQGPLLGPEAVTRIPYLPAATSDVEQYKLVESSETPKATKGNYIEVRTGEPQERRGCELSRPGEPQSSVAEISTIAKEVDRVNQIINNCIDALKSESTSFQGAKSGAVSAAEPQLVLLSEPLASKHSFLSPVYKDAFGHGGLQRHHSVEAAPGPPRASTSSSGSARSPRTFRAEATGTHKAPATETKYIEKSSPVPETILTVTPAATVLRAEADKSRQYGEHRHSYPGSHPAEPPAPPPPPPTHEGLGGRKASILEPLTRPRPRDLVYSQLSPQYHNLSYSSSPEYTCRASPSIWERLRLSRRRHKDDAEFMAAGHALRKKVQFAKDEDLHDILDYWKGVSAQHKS
# test.name: Thallium flux assay, mGlu7/GIRK HEK293 cells cocultured with Elfn1-expressing cells
# Type: cell-based, mouse Elfn1
# condition: 10 μM NAM; three lowest L-AP4 concentrations; normalized to mGlu7/pcDNA3 vehicle L-AP4 max
metric.name: baseline response ± SEM, Elfn1

Need baseline response ± SEM, Elfn1 of COc1ccc(-c2cnc(-c3cc(OC(F)(F)F)ccc3-n3cncn3)o2)cc1OC , thanks.
0.2 ± 3.5

* * *

# system.tested: rat mGlu7 (Rattus norvegicus, UniProt P35400)
# Construct: expressed in transfected cells; host or cells: HEK293A cells stably expressing mGlu7 and GIRK1/2
# Sequence (P35400 35-915): as the sequence (P35400 35-915) above
# test.name: Thallium flux assay, mGlu7/GIRK HEK293 cells cocultured with pcDNA3 vector control cells
# Assay type: cell-based
# condition: PAM pEC50, pcDNA, PAM concentration-response at an EC20 concentration of L-AP4
metric.name: pEC50
Would you please state pEC50, meaning minus log10 of the concentration in mol/L, as a bare number?

Need pEC50 of COc1cc(F)cc2c(N3CCN(c4ccccc4F)CC3)c(C#N)cnc12 [VU6027459] , thanks.
6.00

* * *

# system.tested: rat mGlu7 (Rattus norvegicus)
# Construct: expressed in transfected cells; host or cells: HEK293A cells stably expressing mGlu7 and GIRK1/2
# test.name: Thallium flux assay, mGlu7/GIRK HEK293 cells cocultured with pcDNA3 vector control cells
# Type: cell-based
# condition: L-AP4 pEC50 ± SEM, pcDNA, DMSO vehicle, agonist alone (DMSO row of Table S1)
metric.name: EC50 (µM)
# output: bare number, implied unit µM

Need EC50 of N[C@@H](CCP(=O)(O)O)C(=O)O [L-AP4, L-2-amino-4-phosphonobutyric acid, reference compound] , thanks.
240

* * *

# system.tested: mGlu7/Elfn1 (Rattus norvegicus)
# Construct: expressed in transfected cells; host or cells: HEK293A mGlu7/GIRK cells cocultured with HEK293A polyclonal cells stably expressing Elfn1-Myc (pcDNA3)
# test.name: Thallium flux assay, mGlu7/GIRK HEK293 cells cocultured with Elfn1-expressing cells
# Assay type: cell-based, mouse Elfn1
# condition: L-AP4 pEC50 ± SEM, Elfn1, DMSO vehicle, agonist alone (DMSO row of Table S1)
# Protocol: We began our evaluation of mGlu7 ligands in the presence and absence of Elfn1 by using a coculture system as previously described , with several modifications (Figure ). […] We then evaluated the activity of the orthosteric agonist L-AP4 and measured effects on maximal response and pEC50. […] Thallium flux assays were performed as previously described. […] Potency (pEC50) and maximum responses (E max) induced by compounds were determined using a four-parameter logistical equation in Prism.
metric.name: pEC50
Would you please state pEC50, meaning minus log10 of the concentration in mol/L, as a bare number?

Need pEC50 of N[C@@H](CCP(=O)(O)O)C(=O)O [L-AP4, L-2-amino-4-phosphonobutyric acid, reference compound] , thanks.
3.70

* * *

# system.tested: rat mGlu7 (Rattus norvegicus)
# Construct: expressed in transfected cells; host or cells: HEK293A cells stably expressing mGlu7 and GIRK1/2
# test.name: Thallium flux assay, mGlu7/GIRK HEK293 cells cocultured with pcDNA3 vector control cells
# Assay type: cell-based
# condition: L-AP4 pEC50 ± SEM, pcDNA, DMSO vehicle, agonist alone (DMSO row of Table 2)
metric.name: pEC50
Would you please state pEC50, meaning minus log10 of the concentration in mol/L, as a bare number?

Need pEC50 of N[C@@H](CCP(=O)(O)O)C(=O)O [L-AP4, L-2-amino-4-phosphonobutyric acid, reference compound] , thanks.
3.71
